# measured.on: UniProt P29323
# Sequence (P29323 whole entry): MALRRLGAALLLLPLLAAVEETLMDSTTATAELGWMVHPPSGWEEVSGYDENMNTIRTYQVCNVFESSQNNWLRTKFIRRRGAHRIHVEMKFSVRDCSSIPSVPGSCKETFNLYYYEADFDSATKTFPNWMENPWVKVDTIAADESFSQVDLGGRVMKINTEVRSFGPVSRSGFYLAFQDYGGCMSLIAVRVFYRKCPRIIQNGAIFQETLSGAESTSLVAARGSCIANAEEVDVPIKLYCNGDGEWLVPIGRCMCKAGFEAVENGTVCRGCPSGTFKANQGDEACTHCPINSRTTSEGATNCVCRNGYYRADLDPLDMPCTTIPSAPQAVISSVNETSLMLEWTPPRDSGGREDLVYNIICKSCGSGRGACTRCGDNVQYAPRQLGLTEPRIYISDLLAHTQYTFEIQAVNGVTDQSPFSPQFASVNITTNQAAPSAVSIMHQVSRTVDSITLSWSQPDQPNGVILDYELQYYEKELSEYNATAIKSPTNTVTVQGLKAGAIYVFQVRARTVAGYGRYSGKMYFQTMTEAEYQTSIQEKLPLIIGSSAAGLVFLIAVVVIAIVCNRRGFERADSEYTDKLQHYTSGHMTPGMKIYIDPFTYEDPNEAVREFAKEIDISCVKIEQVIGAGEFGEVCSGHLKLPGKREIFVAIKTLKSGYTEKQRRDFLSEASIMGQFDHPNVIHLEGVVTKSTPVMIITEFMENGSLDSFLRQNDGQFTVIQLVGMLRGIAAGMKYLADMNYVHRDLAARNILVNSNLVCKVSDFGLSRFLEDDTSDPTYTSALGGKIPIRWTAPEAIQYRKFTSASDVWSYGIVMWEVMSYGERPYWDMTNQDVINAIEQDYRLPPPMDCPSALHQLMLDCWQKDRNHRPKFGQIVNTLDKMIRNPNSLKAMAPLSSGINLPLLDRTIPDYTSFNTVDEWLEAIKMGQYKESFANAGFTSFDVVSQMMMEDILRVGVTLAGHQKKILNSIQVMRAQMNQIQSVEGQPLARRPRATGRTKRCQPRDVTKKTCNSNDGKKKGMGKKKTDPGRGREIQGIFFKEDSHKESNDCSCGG
# protocol.notes: Inhibition of EphB2 (unknown origin) ACT labeling site by KiNativ Profiling analysis
// pIC50 lookup, one value per entry
// pIC50 here means minus log10 of the molar concentration (mol/L)

{"query.smiles": "CCN1CCN(Cc2ccc(NC(=O)c3ccc(C)c(Oc4ccnc5[nH]ccc45)c3)cc2C(F)(F)F)CC1", "pIC50": 6.17}

Would you kindly look at the next entry?
Q: Which pIC50 is listed for CCN1CCN(Cc2ccc(NC(=O)c3ccc(C)c(/C=C/c4cnc5[nH]ccc5c4OC)c3)cc2C(F)(F)F)CC1 ?
Ans: 7.12

---

// Cmax lookup, one value per entry
# protocol.notes: Cmax in Swiss albino mouse at 1 mg/kg, iv measured upto 24 hrs by LC/MS/MS analysis
# Assay type: ADME, organism-based
# experimental.parameters: in vivo
Quick note: unit goes after the number.

# count of solved cases: 3
{"query.smiles": "CCN1CCN(Cc2ccc(NC(=O)c3ccc(C)c(Oc4ccnc5[nH]ccc45)c3)cc2C(F)(F)F)CC1", "Cmax": "0.396 µg/mL"}
{"query.smiles": "CCN1CCN(Cc2ccc(NC(=O)c3ccc(C)c(Oc4ncnc5[nH]ccc45)c3)cc2C(F)(F)F)CC1", "Cmax": "0.2309 µg/mL"}
{"query.smiles": "CCN1CCN(Cc2ccc(NC(=O)c3ccc(C)c(Oc4ncnc5[nH]ncc45)c3)cc2C(F)(F)F)CC1", "Cmax": "0.2803 µg/mL"}

Would you kindly look at the next entry?
Q: Which Cmax is listed for CCN1CCN(Cc2ccc(NC(=O)c3ccc(C)c(Oc4ncnc5[nH]c(C)cc45)c3)cc2C(F)(F)F)CC1 ?
Ans: 0.317 µg/mL

---

# measured.on: Mitogen-activated protein kinase 9 (Homo sapiens)
# Sequence (P45984 whole entry): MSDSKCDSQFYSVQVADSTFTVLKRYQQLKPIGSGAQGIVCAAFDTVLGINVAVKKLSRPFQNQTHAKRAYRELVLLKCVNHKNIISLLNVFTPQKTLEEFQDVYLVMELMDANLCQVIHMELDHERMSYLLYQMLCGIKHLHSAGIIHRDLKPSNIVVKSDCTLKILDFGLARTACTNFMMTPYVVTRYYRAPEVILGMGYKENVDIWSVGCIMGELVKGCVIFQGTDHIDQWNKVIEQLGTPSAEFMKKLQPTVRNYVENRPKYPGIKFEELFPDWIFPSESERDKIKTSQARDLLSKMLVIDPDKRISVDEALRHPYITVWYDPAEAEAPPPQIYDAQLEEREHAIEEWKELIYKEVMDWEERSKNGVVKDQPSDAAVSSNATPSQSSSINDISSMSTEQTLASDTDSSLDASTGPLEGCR
# protocol.notes: Inhibition of JNK2 (unknown origin) Lys2 labeling site by KiNativ Profiling analysis
pIC50: −log10 of the molar value.
measured.parameter: pIC50

{"query.smiles": "CCN1CCN(Cc2ccc(NC(=O)c3ccc(C)c(/C=C/c4cnc5[nH]ccc5c4OC)c3)cc2C(F)(F)F)CC1", "measured.on": "Mitogen-activated protein kinase 9 (Homo sapiens)", "measured": "< 5.00"}

Would you kindly look at the next entry?
Q: Which pIC50 is listed for CCN1CCN(Cc2ccc(NC(=O)c3ccc(C)c(Oc4ccnc5[nH]ccc45)c3)cc2C(F)(F)F)CC1 ?
Ans: < 5.00

---

# protocol.notes: AUC last in Swiss albino mouse at 10 mg/kg, po measured upto 24 hrs by LC/MS/MS analysis
# Assay type: ADME, organism-based
# experimental.parameters: in vivo
Cut-off 300 ng·h/mL on AUClast, inclusive. At or above means Fulfilled; below means Not fulfilled.

Please review the following examples before continuing.
{"query.smiles": "CCN1CCN(Cc2ccc(NC(=O)c3ccc(C)c(Oc4ncnc5[nH]ncc45)c3)cc2C(F)(F)F)CC1", "qualitative.label": "Not fulfilled"}
{"query.smiles": "CCN1CCN(Cc2ccc(NC(=O)c3ccc(C)c(Oc4ncnc5[nH]c(C)cc45)c3)cc2C(F)(F)F)CC1", "qualitative.label": "Fulfilled"}
{"query.smiles": "CCN1CCN(Cc2ccc(NC(=O)c3ccc(C)c(Oc4ncnc5[nH]ccc45)c3)cc2C(F)(F)F)CC1", "qualitative.label": "Fulfilled"}

Please turn your attention to the following entry.
Q: Reported AUClast at or above 300 ng·h/mL? CCN1CCN(Cc2ccc(NC(=O)c3ccc(C)c(Oc4ccnc5[nH]ccc45)c3)cc2C(F)(F)F)CC1
Ans: Fulfilled
